- Test system: Escherichia coli ATCC 25922
- ASSAY_PROCEDURE: ≥ marks a high value that may be exact or a test limit, other limits are often not marked, values filed in µg/mL are converted to µM
MIC for assorted molecules
Please give a number only; it is taken to be in µM.

NC(=O)[C@H](CCCN=C(N)N)NC(=O)[C@H](CCCN=C(N)N)NC(=O)[C@H](Cc1c[nH]c2ccccc12)NC(=O)[C@H](Cc1ccc(O)cc1)NC(=O)[C@H](Cc1c[nH]c2ccccc12)NC(=O)[C@H](Cc1c[nH]c2ccccc12)NC(=O)[C@H](Cc1c[nH]c2ccccc12)NC(=O)[C@H](Cc1ccc(O)cc1)NC(=O)[C@H](Cc1c[nH]c2ccccc12)NC(=O)[C@H](CCCN=C(N)N)NC(=O)[C@@H](N)CCCN=C(N)N: 32

# next molecule below
QUERY: If you can, please state the reported MIC value of `NC(=O)CC[C@H](NC(=O)[C@H](Cc1c[nH]c2ccccc12)NC(=O)[C@H](CCCN=C(N)N)NC(=O)[C@@H](N)CCCN=C(N)N)C(=O)N[C@@H](Cc1c[nH]c2ccccc12)C(=O)N[C@@H](CCCN=C(N)N)C(=O)O` .
RESULT: 22

* * *

- Tested on: Escherichia coli ATCC 25922
Note to self: MIC under 20 µM means fulfilled, ties and anything higher get not fulfilled.

Example entries and their recorded answers appear below.
NCCCC[C@H](NC(=O)[C@H](CCCN=C(N)N)NC(=O)CNC(=O)[C@@H](N)Cc1ccc(O)cc1)C(=O)N[C@@H](CCCCN)C(=O)N[C@@H](CCCN=C(N)N)C(=O)N[C@@H](CCCN=C(N)N)C(=O)N[C@@H](CCC(N)=O)C(=O)N[C@@H](CCCN=C(N)N)C(=O)N[C@@H](CCCN=C(N)N)C(=O)N[C@@H](CCCN=C(N)N)C(=O)O: fulfilled
CC[C@H](C)[C@H](NC(=O)[C@H](CCCN=C(N)N)NC(=O)[C@H](CCCCN)NC(=O)[C@H](Cc1ccccc1)NC(=O)[C@H](Cc1ccccc1)NC(=O)CN)C(=O)N[C@@H](CCCN=C(N)N)C(=O)N[C@H](C(=O)N[C@@H](Cc1ccccc1)C(=O)N[C@@H](Cc1ccccc1)C(N)=O)[C@@H](C)O: not fulfilled
CC[C@H](C)[C@H](NC(=O)[C@H](CCCN=C(N)N)NC(=O)[C@H](CCCCN)NC(=O)[C@H](CC(C)C)NC(=O)[C@@H](N)CC(C)C)C(=O)N[C@@H](CCCCN)C(=O)N[C@H](C(=O)N[C@@H](CC(C)C)C(=O)N[C@@H](CC(C)C)C(N)=O)[C@@H](C)O: not fulfilled
CC[C@H](C)[C@H](NC(=O)[C@H](CCCN=C(N)N)NC(=O)[C@H](CCC(N)=O)NC(=O)[C@H](Cc1cnc[nH]1)NC(=O)[C@@H](NC(=O)[C@H](CCCN=C(N)N)NC(=O)[C@H](CCCCN)NC(=O)[C@@H](N)Cc1ccccc1)[C@@H](C)CC)C(=O)N[C@@H](CCCCN)C(=O)N[C@@H](CC(=O)O)C(=O)N[C@@H](Cc1ccccc1)C(=O)N[C@@H](CC(C)C)C(=O)N[C@@H](CCCN=C(N)N)C(=O)O: fulfilled

QUERY: Is MIC of `CC[C@H](C)[C@H](NC(=O)[C@H](Cc1c[nH]c2ccccc12)NC(=O)[C@H](CCCCN)NC(=O)[C@H](Cc1c[nH]c2ccccc12)NC(=O)[C@H](Cc1c[nH]c2ccccc12)NC(=O)[C@H](CCCCN)NC(=O)[C@H](CCCCN)NC(=O)[C@H](Cc1c[nH]c2ccccc12)NC(=O)[C@@H](N)CCCCN)C(N)=O` strictly below 20 µM?
RESULT: fulfilled

* * *

Salmonella enterica subsp. enterica serovar Pullorum C79-13: reported MIC for various molecules.
Please give a number only; it is taken to be in µM.

CC(C)C[C@H](NC(=O)[C@@H]1CCCN1C(=O)[C@H](CCCCN)NC(=O)[C@H](CC(C)C)NC(=O)[C@H](CC(C)C)NC(=O)[C@@H]1CCCN1C(=O)[C@H](CCCCN)NC(=O)[C@H](CC(C)C)NC(=O)[C@H](CC(C)C)NC(=O)[C@@H]1CCCN1C(=O)[C@H](CCCCN)NC(=O)[C@H](CC(C)C)NC(=O)[C@H](CC(C)C)NC(=O)[C@@H]1CCCN1C(=O)[C@H](CCCCN)NC(=O)[C@H](CC(C)C)NC(=O)[C@H](CC(C)C)NC(=O)[C@@H]1CCCN1C(=O)[C@H](CCCCN)NC(=O)[C@@H](N)CC(C)C)C(N)=O: 4

QUERY: Record lookup: for Salmonella enterica subsp. enterica serovar Pullorum C79-13, what MIC belongs to `C[C@@H]1NC(=O)[C@@H](N)CSSC[C@@H](C(=O)N[C@@H](CCCN=C(N)N)C(=O)N[C@@H](Cc2c[nH]c3ccccc23)C(=O)N[C@@H](Cc2c[nH]c3ccccc23)C(=O)N[C@@H](Cc2c[nH]c3ccccc23)C(=O)N[C@@H](CCCN=C(N)N)C(=O)N[C@@H](CCCN=C(N)N)C(N)=O)NC(=O)[C@H](Cc2ccccc2)NC(=O)[C@H](Cc2ccc(O)cc2)NC(=O)[C@H](CO)NC1=O` ?
RESULT: 8

QUERY: Record lookup: for Salmonella enterica subsp. enterica serovar Pullorum C79-13, what MIC belongs to `CC(C)C[C@H](NC(=O)CNC(=O)CNC(=O)CNC(=O)[C@@H](N)CCCNC(=N)N)C(=O)N[C@H]1CSSC[C@@H](C(=O)N[C@H](C(=O)NCC(=O)N[C@@H](CCCNC(=N)N)C(N)=O)C(C)C)NC(=O)[C@H](C(C)C)NC(=O)[C@@H]2CSSC[C@H](NC(=O)[C@H](Cc3ccc(O)cc3)NC1=O)C(=O)N[C@@H](CCCNC(=N)N)C(=O)N[C@@H](CCCNC(=N)N)C(=O)N[C@@H](CCCNC(=N)N)C(=O)N[C@@H](Cc1ccccc1)C(=O)N2` ?
RESULT: 1.99

QUERY: Record lookup: for Salmonella enterica subsp. enterica serovar Pullorum C79-13, what MIC belongs to `NC(=O)CC[C@H](NC(=O)[C@H](Cc1c[nH]c2ccccc12)NC(=O)[C@H](CCCN=C(N)N)NC(=O)[C@H](CCCN=C(N)N)NC(=O)[C@H](Cc1c[nH]c2ccccc12)NC(=O)[C@@H](N)Cc1ccccc1)C(=O)N[C@@H](Cc1c[nH]c2ccccc12)C(=O)N[C@@H](CCCN=C(N)N)C(=O)N[C@@H](CCCN=C(N)N)C(=O)N[C@@H](CCCN=C(N)N)C(=O)N[C@@H](Cc1c[nH]c2ccccc12)C(=O)N[C@@H](Cc1ccccc1)C(N)=O` ?
RESULT: 8

QUERY: Record lookup: for Salmonella enterica subsp. enterica serovar Pullorum C79-13, what MIC belongs to `CC[C@H](C)[C@H](NC(=O)CNC(=O)[C@@H](NC(=O)[C@H](Cc1c[nH]c2ccccc12)NC(=O)[C@@H](NC(=O)CNC(=O)[C@@H](NC(=O)[C@H](CCCCN)NC(=O)[C@@H](N)CCCCN)[C@@H](C)CC)[C@@H](C)CC)[C@@H](C)CC)C(=O)N[C@@H](CCCCN)C(=O)N[C@@H](CCCCN)C(N)=O` ?
RESULT: 8

QUERY: Record lookup: for Salmonella enterica subsp. enterica serovar Pullorum C79-13, what MIC belongs to `CC[C@H](C)[C@H](NC(=O)[C@H](CCCN=C(N)N)NC(=O)[C@H](Cc1c[nH]c2ccccc12)NC(=O)[C@H](CCCCN)NC(=O)[C@@H](N)CCCN=C(N)N)C(=O)N[C@H](C(=O)N[C@H](C(=O)N[C@H](C(=O)N[C@@H](CCCN=C(N)N)C(=O)N[C@H](C(=O)N[C@@H](CCCN=C(N)N)C(=O)N[C@@H](CCCN=C(N)N)C(N)=O)C(C)C)[C@@H](C)CC)C(C)C)C(C)C` ?
RESULT: 8

* * *

MIC for assorted compounds
- System: Pseudomonas aeruginosa ATCC 9027
- ASSAY_PROCEDURE: ≥ marks a high value that may be exact or a test limit, other limits are often not marked, values filed in µg/mL are converted to µM

See these solved cases before continuing.
CC(C)C[C@H](NC(=O)[C@H](CC(C)C)NC(=O)[C@@H](NC(=O)[C@@H](N)CCCCN)[C@@H](C)O)C(=O)N[C@@H](CCCCN)C(=O)N[C@@H](CCCCN)C(=O)N[C@H](C(=O)N[C@@H](CC(C)C)C(=O)N[C@@H](CCCCN)C(=O)N[C@@H](C)C(=O)N[C@@H](C)C(=O)N[C@@H](C)C(N)=O)C(C)C: > 50 µM
C[C@H](N)C(=O)N[C@@H](CCCN=C(N)N)C(=O)N[C@@H](CCCN=C(N)N)C(=O)N[C@@H](Cc1c[nH]c2ccccc12)C(=O)N[C@@H](Cc1c[nH]c2ccccc12)C(=O)N[C@@H](Cc1c[nH]c2ccccc12)C(=O)N[C@@H](CCCN=C(N)N)C(=O)N[C@@H](CCCN=C(N)N)C(=O)N[C@@H](C)C(N)=O: 128 µM

# next compound below
QUERY: Record lookup: for Pseudomonas aeruginosa ATCC 9027, what MIC belongs to `CC[C@H](C)[C@H](NC(=O)[C@H](CCCCN)NC(=O)[C@H](CCCCN)NC(=O)[C@@H](NC(=O)[C@H](C)NC(=O)[C@H](CO)NC(=O)[C@@H](NC(=O)[C@H](C)NC(=O)[C@H](CO)NC(=O)[C@@H]1CCCN1C(=O)[C@@H](NC(=O)[C@H](CC(C)C)NC(=O)[C@H](CO)NC(=O)[C@H](CC(C)C)NC(=O)[C@H](CC(C)C)NC(=O)[C@H](Cc1ccccc1)NC(=O)[C@H](Cc1ccccc1)NC(=O)[C@@H]1CCCN1C(=O)[C@@H](N)CC(C)C)[C@@H](C)CC)[C@@H](C)CC)[C@@H](C)CC)C(N)=O` ?
RESULT: 2.5 µM
